Each recorded value in this set is attributed to the Human Domainome abundance scans (Beltran et al. 2025).

Collected abundance fitness values appear next to each entry.
B1: POU domain, class 2, transcription factor 3, residues 186 to 260; numbered along this chain, Q9UKI9 (parent)
chain: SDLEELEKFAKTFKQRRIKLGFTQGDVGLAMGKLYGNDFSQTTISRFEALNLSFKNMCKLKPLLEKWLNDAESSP

- Variants of: B1
- method.notes: abundance fitness (aPCA) (normalised: wild type 0, dead -1); higher = more abundant; growth selection in yeast, the domain comes from the species named
- condition.details: Homo sapiens
Answer field: number only, no words.

May I ask what abundance fitness has been recorded for `E5A` ?
0.042

Another: `C58K`
-0.058

Another: `A71W`
-0.076

Another: `M57F`
-0.222

Another: `Q41F`
-0.037

Another: `N51C`
-0.076

Another: `I18T`
-0.041

Another: `N56Y`
-0.022

Another: `Q41W`
-0.095

Another: `I44C`
-0.538

***
May I ask what abundance fitness has been recorded for `S53Q` ?
-0.077

Another: `G25V`
-0.161

Another: `F9L`
-0.514

Another: `W67I`
-0.419

Another: `L50S`
0.031

Another: `L52R`
-0.717

Another: `W67L`
-0.246

Another: `C58T`
-0.09

Another: `G36C`
-0.18

Another: `N37T`
-0.013

Another: `N37E`
0.003

Another: `I18H`
-0.133
